Exercise: state measured inhibition at 10 µM for each of the compounds provided.
# tgt: PRMT1 (Homo sapiens, UniProt Q99873)
# Construct: made in house
# Sequence (Q99873 whole entry, species assumed): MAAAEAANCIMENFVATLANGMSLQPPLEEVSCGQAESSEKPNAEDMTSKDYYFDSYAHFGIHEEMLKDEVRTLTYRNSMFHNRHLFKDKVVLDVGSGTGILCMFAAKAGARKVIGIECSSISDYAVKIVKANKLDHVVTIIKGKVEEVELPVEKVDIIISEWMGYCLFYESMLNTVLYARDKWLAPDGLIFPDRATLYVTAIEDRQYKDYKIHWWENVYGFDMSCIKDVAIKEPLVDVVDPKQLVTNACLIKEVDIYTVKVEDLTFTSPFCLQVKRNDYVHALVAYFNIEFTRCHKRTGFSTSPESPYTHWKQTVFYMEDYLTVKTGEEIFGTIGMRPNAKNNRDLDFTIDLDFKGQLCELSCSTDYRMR
# protocol.summary: SAHH-coupled fluorescence assay, inhibition of PRMT1
# Type: biochemical
Your answer is read as %, so omit the unit and give the number.

Asked: Entry under review: Nc1ncnc2c1ncn2[C@@H]1O[C@H](CSCCCNCc2cccc(-c3ccc(Cl)cc3)c2)[C@@H](O)[C@H]1O [Compound 10m] . Reported inhibition at 10 µM?
Given back: 65

Asked: Entry under review: N=C(NCCCSC[C@H]1O[C@@H](n2cnc3c(NCCCc4ccccc4)ncnc32)[C@H](O)[C@@H]1O)NC1CCCC1 [Compound 19d] . Reported inhibition at 10 µM?
Given back: 90

Asked: Entry under review: `N=C(NCCSC[C@H]1O[C@@H](n2cnc3c(N)ncnc32)[C@H](O)[C@@H]1O)Nc1cccc(I)c1` . Reported inhibition at 10 µM?
Given back: 95

Asked: Entry under review: COc1cc2nc(-c3ccc(Cl)cc3)nc(NCCSC[C@H]3O[C@@H](n4cnc5c(N)ncnc54)[C@H](O)[C@@H]3O)c2cc1OC [Compound 12a] . Reported inhibition at 10 µM?
Given back: 1

Asked: Entry under review: `Nc1ncnc2c1ncn2[C@@H]1O[C@H](CSCCNC(=O)NCc2ccc(-c3cccc(O)c3)cc2)[C@@H](O)[C@H]1O` . Reported inhibition at 10 µM?
Given back: 22

Asked: Entry under review: Nc1ncnc2c1ncn2[C@@H]1O[C@H](CSCCNCc2cccc(-c3ccoc3)c2)[C@@H](O)[C@H]1O [Compound 10d] . Reported inhibition at 10 µM?
Given back: 14
